metric: melting point

Take a look at these entries with their results.
compound: CN1CC(CCN2CCN(c3ccccn3)CC2)c2nc3ccccc3n2C1=O (stereo not drawn)
metric: melting point
experimental_result: 158 to 159 °C
//
compound: CCOc1cccc(CC(=O)O)c1OCCn1cc(C(=O)NCc2ccc(Cl)cc2Cl)c(OC(C)C)n1
metric: melting point
experimental_result: 90 to 91 °C

Q: Using known records, supply melting point for Cc1cc([N+](=O)[O-])c(NCC(O)CO)c([N+](=O)[O-])c1 (stereo not drawn)
Ans: 118 °C

---

Here the recorded melting point is given for each entry.

Take a look at these entries with their results.
molecule: COc1cc2c(cc1OC)C(c1ccccc1)=NC(c1cccnc1)C2 (centres undefined)
metric: melting point
experimental_result: 180 to 182 °C
--
molecule: COc1cc(C(C)(C)C)c(O)c(C(=O)Nc2ccc(S(=O)(=O)C(F)(F)F)cc2Cl)c1C
metric: melting point
experimental_result: 121 to 122 °C
--
molecule: CC(=O)N=C(OC(C)=O)N1CCSC1c1ccccc1OCCN1CCN(c2cccc(F)c2)CC1 (centres undefined)
metric: melting point
experimental_result: 114 to 115 °C
--
molecule: O=C1CCc2cc3[nH]c(-c4ccncc4)nc3cc2N1
metric: melting point
experimental_result: 285 to 288 °C
--
molecule: O=C(CCl)c1ccc(Cl)c(S(=O)(=O)NC2CCCCC2)c1
metric: melting point
experimental_result: 117 °C
--
molecule: CCC1(CCCCN2CCN(c3ccc(F)c(Cl)c3)CC2)C(=O)Nc2ccccc21 (centres undefined)
metric: melting point
experimental_result: 121 to 124 °C
--
molecule: Fc1ccc2[nH]c3c(c2c1)CN(CCCCc1ccncc1)CC3
metric: melting point
experimental_result: 210 to 212 °C
--
molecule: CCOP(=O)(CCCOn1cnc2c(Cl)nc(NC=O)nc21)OCC
metric: melting point
experimental_result: 121 to 124 °C
--
molecule: CCOC(=O)c1cn(Cc2ccccc2OC)c2sc(-c3ccc(OC)cc3)c(CBr)c2c1=O
metric: melting point
experimental_result: 200 to 201 °C
--
molecule: COc1ccc(NS(C)(=O)=O)cc1C(=O)NC1CCN(C2CCCCC2)C1 (centres undefined)
metric: melting point
experimental_result: 170 to 172 °C

Q: Using known records, supply melting point for CC(C(=O)O)c1ccc2c(c1)CCc1ccccc1C2=O (centres undefined)
Ans: 122 °C

Q: Using known records, supply melting point for `Cc1nn(-c2cc3nc(S(=O)(=O)Cc4ccccc4Cl)sc3cc2Cl)c(=O)n1C(F)F`
Ans: 196 to 198 °C

Q: Using known records, supply melting point for `O=C(c1ccc(-n2ccnc2-c2ccccc2)cc1)C1CC1`
Ans: 155 to 157 °C

Q: Using known records, supply melting point for `COc1ccc(-c2c(Cl)c(Cn3cncn3)nc3sc4c(c23)CCN(Cc2ccccc2)C4)cc1OC`
Ans: 165 to 166 °C
